Origin of measurements: ChEMBL document CHEMBL1132652

Property: ID50; scope: individual compounds
species: Oryctolagus cuniculus; experiment: Inhibitory activity against thrombus formation in rabbit using Arterio-Venous Shunt Thrombosis Model; format: functional
Give the quantity in µM/h/kg, number only.

[
  {
    "Compound": "CCOCC1(C(=O)Nc2ccc(-c3ccccc3S(N)(=O)=O)cn2)CC(c2cccc(C(=N)N)c2)=NO1 (configuration not stated)",
    "ID50 / µM/h/kg": 0.8
  },
  {
    "Compound": "COC(=O)CC1(C(=O)Nc2ccc(-c3ccccc3S(N)(=O)=O)cc2)CC(c2cccc(C(=N)N)c2)=NO1.O=C(O)C(F)(F)F (configuration not stated)",
    "ID50 / µM/h/kg": 0.6
  },
  {
    "Compound": "CCOCC1(C(=O)Nc2ccc(-c3ccccc3S(N)(=O)=O)cc2)CC(c2cccc(C(=N)N)c2)=NO1 (configuration not stated)",
    "ID50 / µM/h/kg": 0.74
  }
]

Which value of ID50 has been reported for N=C(N)c1cccc(C2=NOC(Cn3cnnn3)(C(=O)Nc3ccc(-c4ccccc4S(N)(=O)=O)cn3)C2)c1 (configuration not stated) in the records?
0.032

Which value of ID50 has been reported for N=C(N)c1cccc(C2=NOC(Cn3cnnn3)(C(=O)Nc3ccc(-c4ccccc4S(N)(=O)=O)cc3Cl)C2)c1.O=C(O)C(F)(F)F (configuration not stated) in the records?
0.25

Which value of ID50 has been reported for N=C(N)c1cccc(C2=NOC(Cn3cnnn3)(C(=O)Nc3ccc(-c4ccccc4S(N)(=O)=O)cc3)C2)c1 (configuration not stated) in the records?
0.035

---

Data export: Ki values recorded with Coagulation factor X (Homo sapiens, UniProt P00742).
Sequence (P00742 41-179 limits assumed): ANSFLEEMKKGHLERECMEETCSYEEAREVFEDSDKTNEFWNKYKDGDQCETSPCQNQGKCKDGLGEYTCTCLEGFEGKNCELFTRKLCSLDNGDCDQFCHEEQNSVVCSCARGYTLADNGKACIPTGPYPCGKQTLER
Sequence (P00742 235-488 limits assumed): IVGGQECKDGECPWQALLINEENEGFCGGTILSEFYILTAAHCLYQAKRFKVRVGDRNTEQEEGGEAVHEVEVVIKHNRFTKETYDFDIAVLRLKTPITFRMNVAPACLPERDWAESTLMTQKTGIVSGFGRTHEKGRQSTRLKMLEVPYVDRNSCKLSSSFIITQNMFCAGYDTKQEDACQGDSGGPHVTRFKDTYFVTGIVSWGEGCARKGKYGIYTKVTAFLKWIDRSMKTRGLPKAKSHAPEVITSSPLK
Give the quantity in nM, number only.

The following molecules have reported results that may help.
[
  {
    "Molecule": "COCC1(C(=O)Nc2ccc(-c3ccccc3S(N)(=O)=O)cc2)CC(c2cccc(C(=N)N)c2)=NO1 (stereo not drawn)",
    "Output unit": "nM",
    "Reported measurement": 3.4
  },
  {
    "Molecule": "N=C(N)c1cccc(C2=NOC(Cn3cnnn3)(C(=O)Nc3ccc(-c4ccccc4S(N)(=O)=O)cc3)C2)c1 (stereo not drawn)",
    "Output unit": "nM",
    "Reported measurement": 1.6
  },
  {
    "Molecule": "COCC1(C(=O)Nc2ncc(-c3ccccc3S(N)(=O)=O)cn2)CC(c2cccc(C(=N)N)c2)=NO1 (stereo not drawn)",
    "Output unit": "nM",
    "Reported measurement": 9.9
  },
  {
    "Molecule": "CCSCC1(C(=O)Nc2ccc(-c3ccccc3S(N)(=O)=O)cn2)CC(c2cccc(C(=N)N)c2)=NO1 (stereo not drawn)",
    "Output unit": "nM",
    "Reported measurement": 2.2
  },
  {
    "Molecule": "COCC1(C(=O)Nc2ccc(-c3ccccc3S(N)(=O)=O)cn2)CC(c2cccc(C(=N)N)c2)=NO1 (stereo not drawn)",
    "Output unit": "nM",
    "Reported measurement": 2.5
  }
]

Turning to the following molecule.
# returns recorded Ki (system: Coagulation factor X (Homo sapiens, UniProt P00742)) for CC(C)COCC1(C(=O)Nc2ccc(-c3ccccc3S(N)(=O)=O)cc2)CC(c2cccc(C(=N)N)c2)=NO1 (stereo not drawn)
37

---

target: Coagulation factor X (Homo sapiens, UniProt P00742); assay: Binding affinity towards human purified Coagulation factor Xa (FXa)
Metric: log10 Ki (log10 of the value in nM)
Hi team, quick reminder: these entries are log10 of Ki (nM).

[
  {
    "Molecule": "CCS(=O)(=O)CC1(C(=O)Nc2ccc(-c3ccccc3S(N)(=O)=O)cc2)CC(c2cccc(C(=N)N)c2)=NO1 (stereo unspecified)",
    "Measured on": "Coagulation factor X (Homo sapiens, UniProt P00742)",
    "log10 Ki": 0.54
  },
  {
    "Molecule": "CCOCC1(C(=O)Nc2ccc(-c3ccccc3S(N)(=O)=O)cn2)CC(c2cccc(C(=N)N)c2)=NO1 (stereo unspecified)",
    "Measured on": "Coagulation factor X (Homo sapiens, UniProt P00742)",
    "log10 Ki": 0.45
  },
  {
    "Molecule": "CCCOCC1(C(=O)Nc2ccc(-c3ccccc3S(N)(=O)=O)cc2)CC(c2cccc(C(=N)N)c2)=NO1 (stereo unspecified)",
    "Measured on": "Coagulation factor X (Homo sapiens, UniProt P00742)",
    "log10 Ki": 0.46
  },
  {
    "Molecule": "N=C(N)c1cccc(C2=NOC(Cn3cnnn3)(C(=O)Nc3ncc(-c4ccccc4S(N)(=O)=O)cn3)C2)c1 (stereo unspecified)",
    "Measured on": "Coagulation factor X (Homo sapiens, UniProt P00742)",
    "log10 Ki": -0.49
  },
  {
    "Molecule": "N=C(N)c1cccc(C2=NOC(C(=O)Nc3ccc(-c4ccccc4S(N)(=O)=O)cc3)C2)c1 (stereo unspecified)",
    "Measured on": "Coagulation factor X (Homo sapiens, UniProt P00742)",
    "log10 Ki": 0.86
  },
  {
    "Molecule": "COC(=O)CC1(C(=O)Nc2ncc(-c3ccccc3S(N)(=O)=O)cn2)CC(c2cccc(C(=N)N)c2)=NO1 (stereo unspecified)",
    "Measured on": "Coagulation factor X (Homo sapiens, UniProt P00742)",
    "log10 Ki": 0.63
  }
]

Which value of log10 Ki has been reported for CCCCOCC1(C(=O)Nc2ccc(-c3ccccc3S(N)(=O)=O)cc2)CC(c2cccc(C(=N)N)c2)=NO1 (stereo unspecified) in the records?
1.11

---

molecular target: Serine protease 1 (Homo sapiens, UniProt P07477)
Sequence (P07477 whole entry): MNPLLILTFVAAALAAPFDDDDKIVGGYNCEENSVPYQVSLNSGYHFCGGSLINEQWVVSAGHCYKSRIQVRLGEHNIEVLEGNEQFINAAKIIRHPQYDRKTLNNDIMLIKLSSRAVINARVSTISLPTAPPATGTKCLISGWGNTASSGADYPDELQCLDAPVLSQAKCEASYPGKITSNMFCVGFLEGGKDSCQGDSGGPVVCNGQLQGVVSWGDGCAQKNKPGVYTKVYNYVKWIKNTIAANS
Ki vs 200 nM: less than gives True; not less than gives False.

[
  {
    "Compound": "N=C(N)c1cccc(C2=NOC(Cn3ncnn3)(C(=O)Nc3ccc(-c4ccccc4S(N)(=O)=O)cc3)C2)c1 (stereo not drawn)",
    "Assigned label": "True"
  },
  {
    "Compound": "N=C(N)c1cccc(C2=NOC(Cn3cnnn3)(C(=O)Nc3ccc(-c4ccccc4S(N)(=O)=O)cc3F)C2)c1 (stereo not drawn)",
    "Assigned label": "True"
  },
  {
    "Compound": "CCOCC1(C(=O)Nc2ccc(-c3ccccc3S(N)(=O)=O)cc2)CC(c2cccc(C(=N)N)c2)=NO1 (stereo not drawn)",
    "Assigned label": "True"
  },
  {
    "Compound": "CCOCC1(C(=O)Nc2ccc(-c3ccccc3S(N)(=O)=O)cn2)CC(c2cccc(C(=N)N)c2)=NO1 (stereo not drawn)",
    "Assigned label": "True"
  }
]

Does CCS(=O)(=O)CC1(C(=O)Nc2ncc(-c3ccccc3S(N)(=O)=O)cn2)CC(c2cccc(C(=N)N)c2)=NO1 (stereo not drawn) have Ki strictly under 200 nM?
False

Does COC(=O)CC1(C(=O)Nc2ncc(-c3ccccc3S(N)(=O)=O)cn2)CC(c2cccc(C(=N)N)c2)=NO1 (stereo not drawn) have Ki strictly under 200 nM?
False

Does CCCOCC1(C(=O)Nc2ccc(-c3ccccc3S(N)(=O)=O)cc2)CC(c2cccc(C(=N)N)c2)=NO1 (stereo not drawn) have Ki strictly under 200 nM?
True

---

molecular target: Prothrombin (Homo sapiens, UniProt P00734)
Ki vs 4 µM: less than gives Satisfied; not less than gives Not satisfied.

[
  {
    "Compound": "COCC1(C(=O)Nc2ccc(-c3ccccc3S(N)(=O)=O)cc2)CC(c2cccc(C(=N)N)c2)=NO1 (stereo not drawn)",
    "Assigned label": "Satisfied"
  },
  {
    "Compound": "COCC1(C(=O)Nc2ccc(-c3ccccc3S(N)(=O)=O)cn2)CC(c2cccc(C(=N)N)c2)=NO1 (stereo not drawn)",
    "Assigned label": "Not satisfied"
  },
  {
    "Compound": "CC(C)OCC1(C(=O)Nc2ccc(-c3ccccc3S(N)(=O)=O)cc2)CC(c2cccc(C(=N)N)c2)=NO1 (stereo not drawn)",
    "Assigned label": "Not satisfied"
  },
  {
    "Compound": "CCCOCC1(C(=O)Nc2ccc(-c3ccccc3S(N)(=O)=O)cc2)CC(c2cccc(C(=N)N)c2)=NO1 (stereo not drawn)",
    "Assigned label": "Not satisfied"
  },
  {
    "Compound": "N=C(N)c1cccc(C2=NOC(Cn3cncn3)(C(=O)Nc3ccc(-c4ccccc4S(N)(=O)=O)cc3)C2)c1 (stereo not drawn)",
    "Assigned label": "Satisfied"
  }
]

Continue with the compound presented below.
Does N=C(N)c1cccc(C2=NOC(CC(=O)O)(C(=O)Nc3ccc(-c4ccccc4S(N)(=O)=O)cc3)C2)c1.O=C(O)C(F)(F)F (stereo not drawn) have Ki strictly under 4 µM?
Not satisfied

---

assay: The plasma half life (5 mg/kg) was measured in rabbits; type: ADME, organism-based, Oryctolagus cuniculus; conditions: rabbit
half-life vs 50 min: less than gives criterion met; not less than gives criterion not met.

# count of solved cases: 6
[
  {
    "Molecule": "N=C(N)c1cccc(C2=NOC(Cn3cnnn3)(C(=O)Nc3ccc(-c4ccccc4S(N)(=O)=O)cn3)C2)c1 (configuration not stated)",
    "Assigned label": "criterion met"
  },
  {
    "Molecule": "CCOCC1(C(=O)Nc2ccc(-c3ccccc3S(N)(=O)=O)cn2)CC(c2cccc(C(=N)N)c2)=NO1 (configuration not stated)",
    "Assigned label": "criterion met"
  },
  {
    "Molecule": "N=C(N)c1cccc(C2=NOC(Cn3cnnn3)(C(=O)Nc3ccc(-c4ccccc4S(N)(=O)=O)cc3)C2)c1 (configuration not stated)",
    "Assigned label": "criterion met"
  },
  {
    "Molecule": "CCOCC1(C(=O)Nc2ccc(-c3ccccc3S(N)(=O)=O)cc2)CC(c2cccc(C(=N)N)c2)=NO1 (configuration not stated)",
    "Assigned label": "criterion met"
  },
  {
    "Molecule": "N=C(N)c1cccc(C2=NOC(Cn3cnnn3)(C(=O)Nc3ccc(-c4ccccc4S(N)(=O)=O)cc3Cl)C2)c1.O=C(O)C(F)(F)F (configuration not stated)",
    "Assigned label": "criterion met"
  },
  {
    "Molecule": "COC(=O)CC1(C(=O)Nc2ccc(-c3ccccc3S(N)(=O)=O)cc2)CC(c2cccc(C(=N)N)c2)=NO1.O=C(O)C(F)(F)F (configuration not stated)",
    "Assigned label": "criterion not met"
  }
]

Continue with the molecule presented below.
Does N=C(N)c1cccc(C2=NOC(CC(=O)O)(C(=O)Nc3ccc(-c4ccccc4S(N)(=O)=O)cc3)C2)c1.O=C(O)C(F)(F)F (configuration not stated) have half-life strictly under 50 min?
criterion not met
